tgt: Human TRPV3 (Homo sapiens, UniProt Q8NET8)
Construct: expressed in transfected cells; host or cells: CHO cells (selected with G-418)
experimental.details: 45Calcium uptake assay: inhibition of 2-APB induced cellular uptake of radioactive calcium
Assay type: cell-based
condition.label: 1 μM test compound; human TRPV3 expressing CHO cells; 2-APB 500 μM; read-out: Percentage Inhibition (1 μM)
endpoint.label: inhibition at 1 µM (%)

Solved cases (5 shown):
1. COc1cccc(/C=C/c2nc3ccccc3n2-c2ncc(Br)cn2)c1OC1CCCC1 56
2. COc1cccc(/C=C/c2nc3ccccc3n2-c2ccc(C(F)(F)F)cn2)c1OC1CCCC1 41.8
3. COc1cccc(/C=C/c2nc3ccccc3n2-c2ncccn2)c1OC1CCCC1 13
4. COc1cccc(/C=C/c2nc3cc(Cl)cnc3n2-c2ccc(C#N)cn2)c1OC1CCCC1 93.7
5. COc1cccc(/C=C/c2nc3ccccc3n2-c2ccc(Cl)cn2)c1OC1CCCC1 62.1

1 = COc1cccc(/C=C/c2nc3ccccc3n2-c2cccs2)c1OCC1CC1
2 = COc1cccc(/C=C/c2nc3cc(F)cc(F)c3n2-c2ccc(C#N)cn2)c1OC1CCCC1
Exercise: Field: entry with larger inhibition at 1 µM (options 1 / 2 ). // caller expects the label of the chosen entry
Key: 2

1 = N#Cc1ccc(-n2c(/C=C/c3cccc(OC(F)F)c3OCC3CCC3)nc3cc(F)c(F)cc32)nc1
2 = COC(=O)c1ccc(-n2c(/C=C/c3cccc(OC)c3OC3CCCC3)nc3ccccc32)nc1
Exercise: Hello, I am sorting some records. Could you say if 1 or 2 has the smaller inhibition at 1 µM value? Your answer should be the label attached to the chosen record.
Key: 2
(2: 16.4%, 1: 96.7%)

I = FC(F)Oc1cccc(/C=C/c2nc3cccnc3n2-c2ccc(OC(F)(F)F)cc2)c1OCC1CCC1
II = CCCCCOc1c(/C=C/c2nc3cc(Cl)cnc3n2-c2ccc(C#N)cn2)cccc1OC(F)F
Exercise: Form field 'greater inhibition at 1 µM' accepts I or II ; which applies? Answer format: the label of the selected item.
Key: I
(I: 66.3%, II: 30.3%)

P = COc1cccc(/C=C/c2nc3ccccc3n2-c2ccc(C#N)cn2)c1OCc1c(F)cccc1F
Q = CCOC(=O)c1ccc(-n2c(/C=C/c3cccc(OC)c3OC3CCCC3)nc3cc(F)c(F)cc32)nn1
Exercise: In the pair P and Q , the larger recorded inhibition at 1 µM belongs to which? Please respond with the label that marks your chosen entry.
Key: P
(P: 84.3%, Q: 53.5%)

I = COc1cccc(/C=C/c2nc3ccccc3n2Cc2ccc(C#N)cc2)c1OC1CCCC1
II = COc1cccc(/C=C/c2nc3ccccc3n2-c2ncccc2C#N)c1OC1CCCC1
Exercise: Choose between I and II : whose measured inhibition at 1 µM value is numerically larger? Write down the label attached to your selection.
Key: I
(I: 88.8%, II: 6.4%)

A = COc1cccc(/C=C/c2nc3cc(Cl)cnc3n2-c2ccc(C#N)cn2)c1OCC1CCC1
B = COc1cccc(/C=C/c2nc3ccc[n+]([O-])c3n2-c2ccc(C#N)cn2)c1OC1CCCC1
C = COc1cccc(/C=C/c2nc3ccccc3n2-c2nc3ccccc3s2)c1OCC1CC1
Exercise: Hello, I need these entries ordered by inhibition at 1 µM, highest reading first. Thanks! Kindly provide the labels arranged according to the requested ordering.
Key: A, C, B
(A: 94.5%, C: 26.1%, B: 3.02%)

P = COc1cccc(/C=C/c2nc3cc(F)c(F)cc3n2-c2ccc(C#N)cn2)c1OC1CCCC1
Q = CCCCCOc1c(/C=C/c2nc3ccc[n+]([O-])c3n2-c2ccc(C#N)cn2)cccc1OC
R = COc1cccc(/C=C/c2nc3ccccc3n2Cc2ccc(F)cc2F)c1OCC1CC1
Exercise: Endpoint returns the given compounds ordered by ascending inhibition at 1 µM. Please list each label once, in the requested order.
Key: Q, R, P

A = COc1cccc(/C=C/c2nc3ccccc3n2-c2ccc(C#N)cc2)c1OCc1ccccc1
B = COc1cccc(/C=C/c2nc3cc(F)c(F)cc3n2-c2ccc(C(N)=O)nn2)c1OC1CCCC1
Exercise: Of A and B , which shows the smaller inhibition at 1 µM value? Lab log: write the label of the selected item as the result.
Key: B

* * *

Listing: pIC50 of selected compounds
tgt: Human TRPV3 (Homo sapiens)
Construct: expressed in transfected cells; host or cells: CHO cells (selected with G-418)
Sequence (Q8NET8 1-790): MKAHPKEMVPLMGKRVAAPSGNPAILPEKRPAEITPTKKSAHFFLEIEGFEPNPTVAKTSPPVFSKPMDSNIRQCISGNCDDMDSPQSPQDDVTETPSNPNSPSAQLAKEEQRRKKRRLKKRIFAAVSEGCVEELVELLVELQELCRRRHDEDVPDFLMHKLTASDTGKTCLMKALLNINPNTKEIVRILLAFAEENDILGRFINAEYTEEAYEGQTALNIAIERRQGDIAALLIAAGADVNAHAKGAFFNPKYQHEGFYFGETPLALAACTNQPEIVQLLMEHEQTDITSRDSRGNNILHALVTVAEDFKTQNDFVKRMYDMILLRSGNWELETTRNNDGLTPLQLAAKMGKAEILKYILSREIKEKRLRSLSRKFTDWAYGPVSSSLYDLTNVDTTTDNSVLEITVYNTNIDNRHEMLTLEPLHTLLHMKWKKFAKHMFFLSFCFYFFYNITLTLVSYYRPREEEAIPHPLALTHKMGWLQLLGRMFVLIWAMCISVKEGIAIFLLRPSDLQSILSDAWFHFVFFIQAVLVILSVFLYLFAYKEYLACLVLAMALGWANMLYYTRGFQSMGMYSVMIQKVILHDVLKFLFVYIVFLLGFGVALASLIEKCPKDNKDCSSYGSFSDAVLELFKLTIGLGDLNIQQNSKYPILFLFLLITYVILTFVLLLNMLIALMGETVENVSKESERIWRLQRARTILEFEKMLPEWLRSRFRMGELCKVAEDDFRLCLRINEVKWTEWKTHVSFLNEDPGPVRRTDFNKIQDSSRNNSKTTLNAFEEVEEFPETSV
experimental.details: 45Calcium uptake assay: inhibition of 2-APB induced cellular uptake of radioactive calcium
Type: cell-based
condition.label: class symbol; human TRPV3 expressing CHO cells; 2-APB 500 μM
pIC50: −log10 of the molar value.

compound	endpoint.label	measurement
COc1cccc(/C=C/c2nc3ccccc3n2-c2ccc(C#N)cn2)c1OCc1c(F)cccc1F [Example 17]	pIC50	6.30 to 7.00

Exercise: For the compound N#Cc1ccc(-n2c(/C=C/c3cccc(OC(F)F)c3OC3CCCC3)nc3cccnc32)nc1 [Example 98] , what pIC50 is on record?
Key: 6.30 to 7.00

Exercise: Given COc1cccc(/C=C/c2nc3ccccc3n2-c2ccc(C#N)cc2F)c1OCC1CC1 [Example 39] , state its recorded pIC50.
Key: 6.30 to 7.00

Exercise: Item under review: N#Cc1ccc(-n2c(/C=C/c3cccc(OC(F)F)c3OCC3CCC3)nc3cccnc32)nc1 [Example 97] . Reported pIC50?
Key: 7.00 to 7.30

Exercise: Returns the measured pIC50 for the input compound. Input: CCCCOc1c(/C=C/c2nc3cccnc3n2-c2ccc(C#N)cn2)cccc1OC [Example 86]
Key: 6.30 to 7.00

* * *

tgt: Human TRPV3 (Homo sapiens, UniProt Q8NET8)
Construct: expressed in transfected cells; host or cells: CHO cells (selected with G-418)
experimental.details: 45Calcium uptake assay: inhibition of 2-APB induced cellular uptake of radioactive calcium
Type: cell-based
condition.label: 10 μM test compound; human TRPV3 expressing CHO cells; 2-APB 500 μM; read-out: Percentage Inhibition (10 μM)
endpoint.label: inhibition at 10 µM (%)

compound	measurement
COc1cccc(/C=C/c2nc3ccccc3n2-c2nccs2)c1OCC1CC1 [Example 46]	81.1
CCOC(=O)c1ccc(-n2c(/C=C/c3cccc(OC)c3OC3CCCC3)nc3ccccc32)nn1 [Example 19]	95.9
COc1cccc(/C=C/c2nc3ccccc3n2-c2ccc(C(F)(F)F)cc2)c1OC1CCCC1 [Example 35]	77.8

I = COc1cccc(/C=C/c2nc3ccccc3n2-c2ccc(C#N)nn2)c1OC1CCCC1 [Example 20]
II = N#Cc1ccc(-n2c(/C=C/c3cccc(OC(F)F)c3OCC3CCC3)nc3cccnc32)nc1 [Example 97]
Exercise: Of I and II , whose reported inhibition at 10 µM is the larger number? Please reply using the label of the selected record.
Key: II
(II: 99.2%, I: 52.7%)

1 = COc1cccc(/C=C/c2nc3ccccc3n2-c2nc3ccccc3s2)c1OCC1CC1 [Example 50]
2 = COc1cccc(/C=C/c2nc3cc(F)c(Cl)cc3n2-c2ccc(C#N)cn2)c1OC1CCCC1 [Example 70]
Exercise: When their inhibition at 10 µM values are compared, which is larger, 1 or 2 ? Respond with the label that goes with your answer.
Key: 2

The measured values listed here are drawn from patent US8344010B2.
